Target: Acetylcholinesterase (Homo sapiens)
Sequence (P22303 whole entry): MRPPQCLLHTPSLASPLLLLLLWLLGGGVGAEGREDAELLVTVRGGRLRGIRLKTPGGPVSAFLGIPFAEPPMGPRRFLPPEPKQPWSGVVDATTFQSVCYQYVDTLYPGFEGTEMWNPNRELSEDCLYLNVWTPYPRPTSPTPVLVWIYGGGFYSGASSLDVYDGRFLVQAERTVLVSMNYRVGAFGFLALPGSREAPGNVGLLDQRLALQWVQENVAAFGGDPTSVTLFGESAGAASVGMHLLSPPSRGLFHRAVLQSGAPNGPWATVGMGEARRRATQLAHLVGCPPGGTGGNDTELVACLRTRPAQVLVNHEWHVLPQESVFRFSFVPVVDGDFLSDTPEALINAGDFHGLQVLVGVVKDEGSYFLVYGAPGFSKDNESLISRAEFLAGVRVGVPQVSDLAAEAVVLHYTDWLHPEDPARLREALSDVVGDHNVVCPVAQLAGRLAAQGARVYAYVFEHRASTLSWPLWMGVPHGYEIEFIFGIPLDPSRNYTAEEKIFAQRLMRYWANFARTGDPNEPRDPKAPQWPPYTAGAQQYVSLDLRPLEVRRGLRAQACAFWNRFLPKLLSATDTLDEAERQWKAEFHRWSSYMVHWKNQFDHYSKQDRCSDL
Test: Inhibition of recombinant human AChE using acetylthiocholine iodide as substrate by Ellman's method
Recorded measurements of IC50, one per entry

molecule: CCN1CCN(c2ccc(-c3nc4ccccc4[nH]3)cc2)CC1
tested.target: Acetylcholinesterase (Homo sapiens)
IC50: 5.18 µM

Here's the next entry for you.
For this molecule ( CO[C@@H]1C=C[C@@]23c4cc5c(cc4CN(C[C@@H]2OC(=O)c2ccc([N+](=O)[O-])cc2)C3C1)OCO5 (some centres not stated) ), measured IC50 is 14.7 µM

----------
Target: UniProtKB O42275
Experiment: Inhibition of electric eel AChE using acetylthiocholine iodide as substrate by spectrophotometric based Ellman's method
quantity.kind: IC50 (µM)
Output spec: scalar in µM, unitless text.

The value of IC50 recorded for O=C(N/N=C/Nc1c2c(nc3ccccc13)CCCC2)C12CC3CC(CC(C3)C1)C2 when tested on UniProtKB O42275 reads 6.77

----------
Biological target: Acetylcholinesterase (Homo sapiens)
Assay: Inhibition of AChE (unknown origin) by spectrophotometric based Ellman's method
quantity.kind: pIC50
Worth noting: pIC50 values are minus log10 of concentrations stated in mol/L.

pIC50 measured on O=C(OC[C@H]1O[C@@H](OC(=O)c2cc(O)c(O)c(O)c2)[C@H](OC(=O)c2cc(O)c(O)c(O)c2)[C@@H](OC(=O)c2cc(O)c(O)c(O)c2)[C@@H]1O)c1cc(O)c(O)c(O)c1 = 4.93

----------
Target: Cholinesterase (Equus caballus)
Sequence (P81908 whole entry): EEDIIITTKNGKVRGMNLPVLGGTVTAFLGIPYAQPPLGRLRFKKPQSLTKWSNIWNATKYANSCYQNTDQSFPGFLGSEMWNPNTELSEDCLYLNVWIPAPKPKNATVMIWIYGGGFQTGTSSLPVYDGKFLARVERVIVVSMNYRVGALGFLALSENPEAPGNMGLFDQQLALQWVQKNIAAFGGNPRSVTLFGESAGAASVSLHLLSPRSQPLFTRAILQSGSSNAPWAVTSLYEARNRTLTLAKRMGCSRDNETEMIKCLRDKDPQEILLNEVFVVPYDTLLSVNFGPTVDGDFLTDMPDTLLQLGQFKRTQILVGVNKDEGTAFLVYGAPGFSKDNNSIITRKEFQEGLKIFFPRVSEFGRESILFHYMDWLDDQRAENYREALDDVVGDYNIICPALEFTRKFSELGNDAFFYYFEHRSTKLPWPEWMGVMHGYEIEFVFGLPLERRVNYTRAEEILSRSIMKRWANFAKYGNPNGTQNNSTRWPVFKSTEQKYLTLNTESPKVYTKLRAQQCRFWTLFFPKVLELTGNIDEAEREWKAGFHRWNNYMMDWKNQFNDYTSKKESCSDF
Assay: Inhibition of equine serum BuChE using butyrylthiocholine iodide as substrate by Ellman's method
quantity.kind: pIC50
Note on units: pIC50 is unitless, being -log10 of a concentration expressed in mol/L.

Consider CCN1CCN(c2ccc(-c3nc4ccccc4[nH]3)cc2)CC1 . Its measured pIC50 is 4.46

----------
Biological target: Amine oxidase [flavin-containing] B (Homo sapiens)
Sequence (P27338 whole entry): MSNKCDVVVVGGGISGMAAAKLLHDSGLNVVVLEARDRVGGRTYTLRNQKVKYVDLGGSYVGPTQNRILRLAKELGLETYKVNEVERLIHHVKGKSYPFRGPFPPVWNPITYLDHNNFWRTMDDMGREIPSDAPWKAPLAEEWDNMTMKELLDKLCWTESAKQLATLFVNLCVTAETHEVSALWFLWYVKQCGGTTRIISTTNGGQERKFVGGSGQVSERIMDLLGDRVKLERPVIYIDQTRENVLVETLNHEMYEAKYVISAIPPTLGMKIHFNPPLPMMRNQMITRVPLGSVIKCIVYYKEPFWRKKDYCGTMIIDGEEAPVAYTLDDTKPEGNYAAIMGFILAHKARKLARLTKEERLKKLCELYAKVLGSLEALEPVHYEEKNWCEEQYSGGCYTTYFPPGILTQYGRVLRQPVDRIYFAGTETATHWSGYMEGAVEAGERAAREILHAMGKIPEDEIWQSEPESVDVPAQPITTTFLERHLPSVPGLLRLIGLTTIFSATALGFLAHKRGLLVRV
Experiment: Inhibition of recombinant human MAO-B assessed as amount of 4-hydroxyquinoline using kynuramine as a substrate incubated for 30 mins by fluorescence spectrophotometry
quantity.kind: pIC50
Scale: pIC50 equals -log10([C]), with [C] in mol/L.

Lab note: measured pIC50 of CCN(CCCCOc1ccc(/C=C/C(=O)N2CCc3ccccc3C2)cc1OC)Cc1ccccc1 was 5.07

----------
System: HepG2
Assay: Cytotoxicity against human HepG2 cells assessed as reduction in cell viability for 24 hrs by MTT assay
Type: functional, cell-based
Details: HepG2, 24 h
quantity.kind: pIC50
Value format note: pIC50 is -log10 of concentration (mol/L); just state the number.

For reference, reported pIC50 for COc1ccc2nc3c(c(N)c2c1)C1CC=CC(C3)C1 (stereo unspecified) stands at 4.83

----------
Target: Acetylcholinesterase (Electrophorus electricus, UniProt O42275)
Sequence (O42275 whole entry): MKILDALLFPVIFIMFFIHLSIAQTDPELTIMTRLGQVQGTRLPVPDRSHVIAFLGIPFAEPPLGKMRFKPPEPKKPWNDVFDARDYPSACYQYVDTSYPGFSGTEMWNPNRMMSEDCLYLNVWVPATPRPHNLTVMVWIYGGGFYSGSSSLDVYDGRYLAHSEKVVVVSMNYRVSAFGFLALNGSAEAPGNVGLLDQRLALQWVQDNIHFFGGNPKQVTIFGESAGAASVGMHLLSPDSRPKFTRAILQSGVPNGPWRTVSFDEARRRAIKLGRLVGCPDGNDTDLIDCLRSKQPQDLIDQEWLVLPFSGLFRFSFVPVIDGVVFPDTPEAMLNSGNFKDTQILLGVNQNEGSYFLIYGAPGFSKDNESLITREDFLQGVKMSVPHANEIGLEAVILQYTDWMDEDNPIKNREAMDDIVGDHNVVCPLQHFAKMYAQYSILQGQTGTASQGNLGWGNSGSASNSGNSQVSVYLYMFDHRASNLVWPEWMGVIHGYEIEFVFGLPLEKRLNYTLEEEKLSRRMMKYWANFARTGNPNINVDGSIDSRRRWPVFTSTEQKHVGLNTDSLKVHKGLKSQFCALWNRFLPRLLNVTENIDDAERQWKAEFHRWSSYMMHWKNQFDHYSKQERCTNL
Assay: Inhibition of Electrophorus electricus AChE using acetylthiocholine iodide as substrate preincubated for 5 mins followed by substrate addition and measured for 2 mins by spectrophotometric based Ellman's method
quantity.kind: pIC50
Note on units: pIC50 is unitless, being -log10 of a concentration expressed in mol/L.

Noted for c1ccc(C[n+]2ccc(-c3nc4ccccc4s3)cc2)cc1 : its pIC50 reads 7.85

----------
Target: Acetylcholinesterase (Homo sapiens)
Assay: Inhibition of recombinant human AChE using acetylthiocholine as substrate by Ellman's method
quantity.kind: IC50 (nM)
Note: unit nM is implicit; provide only the numeric part.

The measured IC50 associated with Clc1ccc2c(NCCCNCC34CC5CC(CC(C5)C3)C4)ccnc2c1 reads 500
